Cited source for all entries: patent US20250171463A1

Below is a list of entries, each paired with its recorded pIC50 value.
target: EBP (Homo sapiens); construct: HEK293T cells were utilized as the source of EBP enzyme; endogenous in cells; assay: EBP Functional Assay (EBP immunoaffinity LC-MS assay); conditions: EBP enzyme from HEK293T cells; 30 min with inhibitor, then zymosterol-d5, 37° C., 4 h; percent conversion to dehydrolathosterol-d5 by LC-APCI MRM MS
Sequence (Q15125 whole entry): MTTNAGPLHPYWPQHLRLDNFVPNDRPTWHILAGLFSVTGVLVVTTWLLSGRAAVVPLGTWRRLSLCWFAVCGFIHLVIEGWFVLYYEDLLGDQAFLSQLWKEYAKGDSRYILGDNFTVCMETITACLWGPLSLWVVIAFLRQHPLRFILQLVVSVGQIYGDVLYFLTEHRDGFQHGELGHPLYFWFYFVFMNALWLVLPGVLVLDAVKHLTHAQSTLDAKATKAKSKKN
pIC50: −log10 of the molar value.

Consider the reported pIC50 for these compounds:
**Q:** Entry O=S(=O)(c1ccc(C2CC2)nc1C(F)(F)F)N1CC2(CN(CC3CCOCC3)C2)C1 has what pIC50?
**A:** > 7.00

**Q:** Let us now turn to Cc1ccc(S(=O)(=O)N2CC3(CN(CC4(O)CCOCC4)C3)C2)c(C)c1
**A:** 6.60 to 7.00

**Q:** Again, but for O=S(=O)(c1ccc(OC(F)F)cc1)N1CCO[C@@]2(CCN([C@H]3CCCOC3)C2)C1 (racemic)
**A:** 5.40 to 6.60

Let's switch to this compound now.
**Q:** Fill in the blank: the reported pIC50 of Cc1nc(C(F)(F)F)ccc1S(=O)(=O)N1CC2(CN(CC3CCOC3)C2)C1 (stereo not shown) [Example 133] is ____.
**A:** 5.40 to 6.60
